# TARGET DESC: T1, mouse CLDN6 fused to GFP, expressed on engineered HEK293T cells (mouse, UniProt Q9Z262 1-219)
# T1 construct: whole, on cells; also called HEK293T-CLDN6-mGFP Artificial CLDN6+ (mouse); murine CLDN6; not shown: GFP tag
# T1 sequence (looked up): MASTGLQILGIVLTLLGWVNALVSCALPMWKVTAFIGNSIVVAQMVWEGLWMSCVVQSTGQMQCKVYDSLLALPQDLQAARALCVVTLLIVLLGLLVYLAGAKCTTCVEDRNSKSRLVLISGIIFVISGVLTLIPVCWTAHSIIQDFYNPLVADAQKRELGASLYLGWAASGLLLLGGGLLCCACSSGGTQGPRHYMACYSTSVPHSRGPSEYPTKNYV
# ASSAY TEXT: FACS dose curve, labelled mAb, HEK293T-CLDN6-mGFP (mouse) cells
REPORTED PROPERTY: EC50 (µM)
Report as a plain number; the unit µM is understood.

Field: example entries. Status: answers known.
AB3 (antibody, V domains shown, Full-length IgG (ExpiCHO)) VH: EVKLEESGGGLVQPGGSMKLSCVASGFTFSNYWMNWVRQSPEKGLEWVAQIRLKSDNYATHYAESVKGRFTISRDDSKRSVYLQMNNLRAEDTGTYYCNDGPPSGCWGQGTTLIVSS VL: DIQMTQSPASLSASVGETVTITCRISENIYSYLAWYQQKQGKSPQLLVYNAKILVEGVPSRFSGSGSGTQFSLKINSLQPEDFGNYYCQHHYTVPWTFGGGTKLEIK : 2.49
AB6 (antibody, V domains shown, Full-length IgG (ExpiCHO)) VH: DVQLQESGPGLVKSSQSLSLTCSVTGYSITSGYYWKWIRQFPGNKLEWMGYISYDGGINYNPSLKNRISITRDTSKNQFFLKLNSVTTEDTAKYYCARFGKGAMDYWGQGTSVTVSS VL: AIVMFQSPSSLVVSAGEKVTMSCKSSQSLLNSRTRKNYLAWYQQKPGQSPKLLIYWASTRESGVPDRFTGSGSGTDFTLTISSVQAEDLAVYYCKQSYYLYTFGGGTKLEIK : 2.22
AB5 (antibody, V domains shown, Full-length IgG (ExpiCHO)) VH: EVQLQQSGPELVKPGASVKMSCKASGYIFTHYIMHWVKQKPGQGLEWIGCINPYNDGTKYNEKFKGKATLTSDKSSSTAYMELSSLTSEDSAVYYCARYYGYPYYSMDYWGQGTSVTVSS VL: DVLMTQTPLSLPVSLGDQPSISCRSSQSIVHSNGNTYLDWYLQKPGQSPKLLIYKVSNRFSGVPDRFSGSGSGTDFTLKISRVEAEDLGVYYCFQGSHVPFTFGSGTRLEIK : 0.011
AB7 (antibody, V domains shown, Full-length IgG (ExpiCHO)) VH: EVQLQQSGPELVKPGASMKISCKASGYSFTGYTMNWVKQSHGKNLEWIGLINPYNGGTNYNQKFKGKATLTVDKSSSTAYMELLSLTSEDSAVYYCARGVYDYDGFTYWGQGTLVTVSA VL: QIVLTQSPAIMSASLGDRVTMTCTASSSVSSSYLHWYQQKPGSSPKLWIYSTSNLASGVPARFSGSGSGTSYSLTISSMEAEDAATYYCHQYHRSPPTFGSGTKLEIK : 1.55

For record AB11 (antibody, V domains shown, Full-length IgG (ExpiCHO)) VH: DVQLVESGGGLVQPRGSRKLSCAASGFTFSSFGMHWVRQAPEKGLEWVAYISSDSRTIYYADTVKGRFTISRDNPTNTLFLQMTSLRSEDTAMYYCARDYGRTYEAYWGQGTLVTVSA VL: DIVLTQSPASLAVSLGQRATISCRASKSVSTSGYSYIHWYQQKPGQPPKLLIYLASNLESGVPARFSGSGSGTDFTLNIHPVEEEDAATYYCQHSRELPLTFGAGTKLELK the listed EC50 is 2.38

EC50 reading for AB1 (antibody, V domains shown, Full-length IgG (ExpiCHO)) VH: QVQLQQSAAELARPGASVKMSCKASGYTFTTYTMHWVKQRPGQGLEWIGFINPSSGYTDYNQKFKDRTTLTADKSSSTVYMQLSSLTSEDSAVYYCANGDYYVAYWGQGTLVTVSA VL: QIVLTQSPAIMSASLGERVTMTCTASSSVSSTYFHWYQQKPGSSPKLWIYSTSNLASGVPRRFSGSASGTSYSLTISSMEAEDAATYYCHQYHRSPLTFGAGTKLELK : 0.072
